Recorded log10 of EC50, one value per entry.
# assayed-target: Rat CB1 (Rattus norvegicus, UniProt P20272)
# Construct: expressed in transfected cells; host or cells: HEK
# Sequence (P20272 whole entry): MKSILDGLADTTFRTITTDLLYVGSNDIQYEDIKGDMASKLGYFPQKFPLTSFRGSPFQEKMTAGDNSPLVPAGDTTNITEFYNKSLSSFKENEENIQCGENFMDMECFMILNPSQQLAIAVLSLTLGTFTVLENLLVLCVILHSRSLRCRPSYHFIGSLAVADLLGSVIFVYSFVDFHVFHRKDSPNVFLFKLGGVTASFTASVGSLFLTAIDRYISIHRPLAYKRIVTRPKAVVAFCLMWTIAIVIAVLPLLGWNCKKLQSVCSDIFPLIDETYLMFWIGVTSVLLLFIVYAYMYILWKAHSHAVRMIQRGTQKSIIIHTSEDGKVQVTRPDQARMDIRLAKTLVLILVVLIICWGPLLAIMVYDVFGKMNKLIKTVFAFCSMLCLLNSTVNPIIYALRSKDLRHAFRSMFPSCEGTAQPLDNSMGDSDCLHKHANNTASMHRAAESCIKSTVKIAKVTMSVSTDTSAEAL
# protocol-notes: rat CB1 cyclase functional assay (HitHunter cAMP)
# Assay type: cell-based
# setup-conditions: Rat CB1 cyclase (EC50, nM), HEK cells, forskolin 37 μM
reported-metric: log10 of EC50 (log10 of the value in nM)

[
  {
    "compound": "CN1CC[C@H]1COc1ccc(C(F)(F)F)cc1C(=O)/N=c1\\oc(C(C)(C)C)cn1C[C@H]1CCCO1 [Example 74]",
    "log10 of EC50": 3.53
  },
  {
    "compound": "Cn1c(C(C)(C)C)c/c(=N\\C(=O)c2cc(C(F)(F)F)ccc2OC[C@@H]2CCCCN2)n1C[C@H]1CCCO1 [Example 88]",
    "log10 of EC50": 2.85
  },
  {
    "compound": "Cn1c(C(C)(C)C)c/c(=N\\C(=O)c2cc(C(F)(F)F)cc(Cl)c2OC[C@@H]2CCCO2)n1C[C@H]1CCCO1 [Example 28]",
    "log10 of EC50": 3.91
  },
  {
    "compound": "CN1CCC[C@H]1COc1ccc(C(F)(F)F)cc1C(=O)/N=c1\\cc(C(C)(C)C)on1C[C@H]1CCCO1 [Example 39]",
    "log10 of EC50": 3.42
  },
  {
    "compound": "CC(=O)NCCOc1ccc(C(F)(F)F)cc1C(=O)/N=c1\\cc(C(C)(C)C)n(C)n1C[C@H]1CCCO1 [Example 78]",
    "log10 of EC50": 3.95
  }
]

Entry source: patent US8188135B2
